Test system: Danio rerio embryo/larva
Assay: max % larvae with blood pooling across tested concentrations; higher = more toxic; extreme values may be limits of the assay
Conditions: exposure: 6-8 hpf to 5 dpf, scored at 6 dpf
result-type: max % larvae (%)
Record the value in %, omitting the unit from your answer.

Solved cases (5 shown):
OCC(F)(F)C(F)(F)C(F)(F)C(F)(F)C(F)(F)C(F)(F)C(F)(F)C(F)(F)CO [1H,1H,10H,10H-Perfluorodecane-1,10-diol] (max tested concentration (log10 uM): 1) | 33.3
O=C(O)C(F)(F)C(F)(F)C(F)(F)C(F)(F)C(F)(F)C(F)(F)C(F)F [8H-Perfluorooctanoic acid] (max tested concentration (log10 uM): 2) | 0
NS(=O)(=O)C(F)(F)C(F)(F)C(F)(F)C(F)(F)C(F)(F)C(F)(F)C(F)(F)C(F)(F)F [Perfluorooctanesulfonamide] (max tested concentration (log10 uM): 0) | 16.7
NS(=O)(=O)C(F)(F)C(F)(F)C(F)(F)C(F)(F)C(F)(F)C(F)(F)F [Perfluorohexanesulfonamide] (max tested concentration (log10 uM): 0.477121) | 0
O=C(O)C(F)(F)C(F)(F)C(F)(F)C(F)(F)C(F)(F)C(F)(F)C(F)(F)C(F)(F)C(F)(F)C(F)F [11-H-Perfluoroundecanoic acid] (max tested concentration (log10 uM): 1.47712) | 100

Request: Looking for the measured max % larvae of OCC(F)(F)C(F)(F)C(F)(F)F [3:1 Fluorotelomer alcohol] (max tested concentration (log10 uM): 2) , can you help?
Response: 8.33

Request: Bench note: what max % larvae did O=C(O)C(F)(F)C(F)(F)C(=O)O [Perfluorobutanedioic acid] (max tested concentration (log10 uM): 2) show?
Response: 8.33

Request: Field request: max % larvae | item: O=C(O)C(F)(F)C(F)(F)C(F)(F)C(F)(F)C(=O)O [Perfluorohexanedioic acid] (max tested concentration (log10 uM): 2)
Response: 0

Request: # get_value(readout='max % larvae', item= OCCCC(F)(F)C(F)(F)C(F)(F)C(F)(F)C(F)(F)C(F)(F)C(F)(F)C(F)(F)F [3-(Perfluorooctyl)propanol] (max tested concentration (log10 uM): 2) )
Response: 0

Request: // returns reported max % larvae for input O=S(=O)(O)CCC(F)(F)C(F)(F)C(F)(F)C(F)(F)C(F)(F)C(F)(F)C(F)(F)C(F)(F)F [8:2 Fluorotelomer sulfonic acid] (max tested concentration (log10 uM): 2)
Response: 0

Request: Could you share which max % larvae value was measured for FC(F)(F)COC(OCC(F)(F)F)OCC(F)(F)F [tris(Trifluoroethoxy)methane] (max tested concentration (log10 uM): 2) ?
Response: 0

Request: Tell me the measured max % larvae of O=C(O)C(F)(F)C(F)(F)C(F)(F)C(F)(F)C(F)(F)C(F)(F)C(F)(F)F [Sodium perfluorooctanoate] (max tested concentration (log10 uM): 2) , please.
Response: 0

Request: Entry CNS(=O)(=O)C(F)(F)C(F)(F)C(F)(F)C(F)(F)C(F)(F)C(F)(F)C(F)(F)C(F)(F)F [N-Methylperfluorooctanesulfonamide] (max tested concentration (log10 uM): 2) : reported max % larvae = ?
Response: 0
